All figures here come from ChEMBL document CHEMBL1123612.

# assay-system: Histamine H2 receptor (Cavia porcellus) (UniProt P47747)
# Sequence (P47747 whole entry): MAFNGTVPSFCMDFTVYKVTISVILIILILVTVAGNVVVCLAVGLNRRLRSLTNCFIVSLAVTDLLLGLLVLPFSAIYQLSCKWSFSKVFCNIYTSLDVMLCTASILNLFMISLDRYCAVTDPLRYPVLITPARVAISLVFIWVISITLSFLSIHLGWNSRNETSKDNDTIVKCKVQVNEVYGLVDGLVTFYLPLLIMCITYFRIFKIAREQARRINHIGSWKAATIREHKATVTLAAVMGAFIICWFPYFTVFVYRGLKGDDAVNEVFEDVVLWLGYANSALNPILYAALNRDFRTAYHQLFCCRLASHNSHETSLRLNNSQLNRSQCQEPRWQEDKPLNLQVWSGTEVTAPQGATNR
# run-description: Histamine H2 receptor antagonist activity (chronotropic response to histamine) in guinea pig right atrium
# Type: functional, tissue-based
# condition-parameters: Cardiac atrium
Can you tell me ED50 for the items I'm about to list?
Hi! Could you send only the number? It should be in nM, unit omitted.

Give me measured ED50, please, for this molecule: N=C(N)Nc1nc(CSCCC(=N)NS(=O)(=O)NCc2ccccc2)cs1 1100

Give me measured ED50, please, for this molecule: N=C(N)Nc1nc(CCCCC(=N)NS(=O)(=O)c2ccccc2)cs1 580

Give me measured ED50, please, for this molecule: N=C(CCCOc1cccc(CN2CCCCC2)c1)NS(N)(=O)=O 1400

Give me measured ED50, please, for this molecule: CNS(=O)(=O)NC(=N)CCSCc1csc(N=C(N)N)n1 860

Give me measured ED50, please, for this molecule: CCCNS(=O)(=O)NC(=N)CCCCc1csc(N=C(N)N)n1 560

Give me measured ED50, please, for this molecule: CN(C)S(=O)(=O)NC(=N)CCSCc1csc(N=C(N)N)n1.O=C(O)/C=C\C(=O)O 1400

Give me measured ED50, please, for this molecule: N=C(N)Nc1nc(CCCCC(=N)NNS(=O)(=O)c2ccccc2)cs1 23000

Give me measured ED50, please, for this molecule: N=C(N)Nc1nc(CSCCC(=N)NNS(=O)(=O)c2ccccc2)cs1 8300

Give me measured ED50, please, for this molecule: CN(C)Cc1ccc(CSCCC(=N)NS(N)(=O)=O)o1 17000
